// LD50 at 336 h lookup, one value per entry
# Measurement notes: Acute toxicity (LD50, Behrens-Koerber method)
# Settings: mouse, in vivo, ip; ddy mice, abdominally administered once, 14 days observation
// note: answer is a bare numeric in mg/kg

Example entries and their recorded answers appear below.
CC1C(=O)C2=C(C(=O)C13OCCO3)[C@H](COC(N)=O)[C@@]1(O)[C@@H]3[C@H](CN21)N3C (stereo partly drawn): 7.5
CO[C@@]12[C@H](COC(N)=O)C3=C(C(=O)C(C)C4(OCCO4)C3=O)N1C[C@H]1[C@@H]2N1C (stereo partly drawn): 4.5

Item CO[C@@]12[C@H](COC(N)=O)C3=C(C(=O)C(C)(Cl)C4(OCCO4)C3=O)N1C[C@@H]1N[C@@H]12 (stereo partly drawn) : provide LD50 at 336 h
3.75

Note down LD50 at 336 h recorded for CN1[C@H]2[C@@H]1CN1C3=C(C(=O)C4(OCCO4)C(C)(Cl)C3=O)[C@H](COC(N)=O)[C@@]21O (stereo partly drawn)
15

Report LD50 at 336 h, nothing else, for this compound: CO[C@@]12[C@H](COC(N)=O)C3=C(C(=O)C(C)C4(OCCO4)C3=O)N1C[C@@H]1N[C@@H]12 (stereo partly drawn)
0.7

Tell me LD50 at 336 h reported for CO[C@]12[C@@H]3[C@H](CN1C1=C(C(=O)C4(OCCO4)C(C)C1=O)[C@@H]2COC(N)=O)N3C (stereo partly drawn)
6
